These entries and their values trace back to patent US6462055B2.

Test system: HCMV recombinant mutant virus (RV145)
Assay: microbe, parasite or virus in culture
Type: cell-based, human cytomegalovirus
Conditions: HCMV
Each entry below lists one item and its recorded IC50 ug/ml HCMV value.
PROPERTY: IC50 ug/ml HCMV (µg/mL)

INSERT INTO assay_data (compound, relation_operator, numeric_readout) VALUES
  ('COc1cc(OC)c(NC(=S)Nc2ccc(NC(=O)c3ccccc3OC(C)=O)cc2)cc1Cl [Example 115]', '=', 8),
  ('Cc1ccccc1C(=O)Nc1ccc(NC(=S)Nc2ccc(N(C)C3CCN(Cc4ccccc4)C3)c(Cl)c2)cc1 (stereo not drawn) [Example 374]', '=', 3),
  ('O=C(Nc1ccc(NC(=S)Nc2cc(C(F)(F)F)cc(C(F)(F)F)c2)cc1)c1ccccc1F [Example 517]', '=', 1.1),
  ('O=C(Nc1ccc(NC(=S)NCCc2ccc(Cl)c(Cl)c2)cc1)c1ccccc1F [Example 719]', '>', 0.5),
  ('CN1CCC(N(C)c2ccc(NC(=S)Nc3ccc(NC(=O)c4c(F)cccc4F)cc3)cc2Cl)CC1 [Example 340]', '=', 0.25),
  ('Cc1ccc(NC(=S)Nc2ccc(NC(=O)c3ccccc3F)cc2Cl)cc1Cl [Example 459]', '>', 10),
  ('COc1ccccc1C(=O)Nc1ccc(NC(=S)N[C@H](C)c2ccc(Br)cc2)cc1 [Example 1105]', '=', 2.5),
  ('COc1cc(OC)c(NC(=S)Nc2ccc(NC(=O)c3ccccc3C(F)(F)F)cc2)cc1Cl [Example 138]', '=', 8),
  ('O=C(Nc1ccc(NC(=S)NCc2ccccc2)cc1)c1ccccc1F [Example 536]', '>', 10),
  ('COc1cc(OC)c(NC(=S)Nc2ccc(NC(=O)c3ccccc3[N+](=O)[O-])cc2)cc1Cl [Example 143]', '>', 10),
  ('COc1ccc(NC(=S)Nc2ccc(NC(=O)c3ccccc3F)cc2)cc1Br [Example 811]', '=', 3.1),
  ('O=C(Nc1ccc(NC(=S)NCc2ccc3c(c2)OCO3)cc1)c1ccccc1F [Example 540]', '>', 0.5),
  ('CC(NC(=S)Nc1ccc(NC(=O)c2ccccc2F)cc1)c1cccc(N(C)C)c1 (stereo not drawn) [Example 794]', '=', 6.2),
  ('CCC(NC(=S)Nc1ccc(NC(=O)c2ccccc2F)cc1)c1ccc(F)cc1 (stereo not drawn) [Example 771]', '=', 0.4),
  ('O=C(Nc1ccc(NC(=S)NCCOc2ccc(Br)cc2)cc1)c1ccccc1F [Example 695]', '>', 3),
  ('CC(=O)Oc1ccc(C(=O)Nc2ccc(NC(=S)NC(C)c3ccc(F)cc3)cc2)cc1 (stereo not drawn) [Example 757]', '>', 10),
  ('Cc1ccc(NC(=S)Nc2ccc(NC(=O)c3ccccc3F)c(C)c2)cc1Cl [Example 395]', '=', 3),
  ('Cc1ccc(C(C)NC(=S)Nc2ccc(NC(=O)c3ccccc3F)cc2)cc1 (stereo not drawn) [Example 782]', '=', 0.9),
  ('CC(O)c1cccc(NC(=S)Nc2ccc(NC(=O)c3ccccc3F)cc2)c1 (stereo not drawn) [Example 448]', '=', 9),
  ('CC1CN(c2ccc(CNC(=S)Nc3ccc(NC(=O)c4ccccc4F)cc3)cc2C(F)(F)F)CCN1 (stereo not drawn) [Example 687]', '>', 0.5),
  ('CCCCSc1ccc(NC(=S)Nc2ccc(NC(=O)c3ccccc3F)cc2)cc1Cl [Example 387]', '>', 10),
  ('COc1c(Cl)cc(NC(=S)Nc2ccc(NC(=O)c3ccc(F)cc3)cc2)cc1Cl [Example 133]', '=', 0.6),
  ('CN(C)c1ccc(NC(=S)Nc2ccc(NC(=O)c3c(F)cccc3F)cc2)cc1Cl [Example 348]', '=', 0.8),
  ('O=C(Nc1ccc(NC(=S)NC(Cc2ccccc2)c2ccc(F)cc2)cc1)c1ccccc1F (stereo not drawn) [Example 774]', '=', 0.5),
  ('CC(NC(=S)Nc1ccc(NC(=O)c2cccc(Cl)c2)cc1)c1ccc(F)cc1 (stereo not drawn) [Example 761]', '=', 1.5),
  ('CCOC(=O)Nc1ccc(NC(=S)Nc2ccc(NC(=O)c3ccccc3F)cc2)cc1Cl [Example 399]', '=', 1.5),
  ('O=C(Nc1ccc(NC(=S)Nc2cccc(CO)c2)cc1)c1ccccc1F [Example 476]', '>', 10),
  ('CN1CCC(N(C)c2ccc(NC(=S)Nc3ccc(NC(=O)c4c(F)cccc4F)cc3)cc2Cl)C1 (stereo not drawn) [Example 349]', '=', 1.2),
  ('CC(NC(=S)Nc1ccc(NC(=O)c2nccc3ccccc23)cc1)c1ccc(F)cc1 (stereo not drawn) [Example 976]', '>', 10),
  ('COc1cc(OC)c(NC(=S)Nc2ccc(NC(=O)c3c(F)cccc3F)cc2)cc1Cl [Example 140]', '=', 4),
  ('COc1cc(OC)c(NC(=S)Nc2ccc(NC(=O)c3cccc(NC(C)=O)c3)cc2)cc1Cl [Example 134]', '=', 4),
  ('CC(NC(=S)Nc1ccc(NC(=O)c2ccc(N(C)C)cc2)cc1)c1ccc(F)cc1 (stereo not drawn) [Example 765]', '=', 2.3),
  ('CSc1ccc(NC(=S)Nc2ccc(NC(=O)c3ccccc3C)cc2)cc1Cl [Example 342]', '=', 1.4);
